Data provenance is patent US9980943B2.

test system: α7 integrin (LacZ reporter in α7βgal+/− myoblasts); experiment: Myoblast α7+/LacZ integrin FDG assay (Burkin assay in myoblasts, 96-well); format: cell-based, mouse; details: 10 uM; α7+/LacZ myoblasts, 96-well
Kindly state Burkin Assay in Myoblasts, signal relative to DMSO for each of the entries shown.
Answers are plain numbers.

{"columns": ["Molecule", "Target", "Measured result"],
 "data": [
  ["CCOc1ccc(Br)cc1S(=O)(=O)Nc1ccc(C(=O)Nc2ccccc2OC)cc1 [MLS000418650-01]", "α7 integrin (LacZ reporter in α7βgal+/− myoblasts)", 0.9633]
]}

Quick batch: Burkin Assay in Myoblasts, signal relative to DMSO for everything below.
1. CCc1nc2ccccc2c(C(=O)NCc2ccccc2)c1C [MLS000688267-01]
2. NS(=O)(=O)c1ccc(NC(=O)CN2CCc3ccccc32)cc1 [MLS000850522-01]
3. COC(=O)Cn1c(=O)c2c(nc3n2CC(C)CN3Cc2ccccc2)n(C)c1=O (stereo not drawn) [MLS001166758-01]
4. Cc1ccc2c(c1)/C(=C/c1ccco1)C(=O)N2 [MLS000682750-01]
5. COc1ccc(CCNC(=O)c2cc(-c3cc(C)ccc3O)n[nH]2)cc1OC [MLS000552080-01]

result:
1. 0.9133
2. 1.003
3. 0.8245
4. 1.076
5. 1.089

###

test system: α7 integrin (LacZ reporter in α7LacZ+/− myoblasts); assay: qHTS of the LOPAC library and MLSMR (online screen, α7LacZ+/− myoblasts); settings: Mus musculus, Myoblast, 48 h, read-out: Activity at 1.530 uM [%] **
Test readout: activation at 1.53 µM (%)
Answers are plain numbers, in %.

Some entries whose results are on file:
{"columns": ["Compound", "Readout unit", "activation at 1.53 µM"],
 "data": [
  ["Cc1ccc(S(=O)(=O)N2CN(CC3CCCO3)c3nc4ccccc4nc32)c(C)c1 (centres unmarked)", "%", -13.3],
  ["CC(OC(=O)c1cc(-c2cccnc2)nc2ccccc12)C(=O)Nc1ccc2ccccc2c1 (centres unmarked)", "%", 143],
  ["C/N=c1\\scc(-c2ccc(OC)cc2)n1/N=C(\\C)c1cccnc1", "%", 2.29],
  ["O=C(CCc1ccccc1)c1nnc(-c2ccccc2)o1", "%", 2.03]
]}

Lab note: each compound below needs its activation at 1.53 µM filled in.
1. O=C(O)c1cc(/N=C/c2c(O)oc3ccccc3c2=O)ccc1O
2. O=C(CN1CCOCC1)NCc1cc([N+](=O)[O-])ccc1O
3. CC(=O)Nc1ccc(NC(=O)c2cc(=O)c3cc(C)cc(C)c3o2)cc1

result:
1. -23.3
2. 15.6
3. -1.91

Okay, here is my list. What is activation at 1.53 µM for each of these?
1. Nc1nccc(-c2ccc(-n3cnc4ccccc43)cc2)n1
2. COc1ccc(CCNC(=O)c2cc(-c3cc(C)ccc3O)n[nH]2)cc1OC
3. COc1ccc(CCNC(=O)c2nn(C)c3c2CS(=O)(=O)c2ccccc2-3)cc1OC
4. COC(=O)c1ccccc1NC(=O)c1cc[n+]([O-])cc1

result:
[2.96, 9.29, -9.73, -4.99]

Hi! Can you tell me activation at 1.53 µM for each of these compounds?
1. NS(=O)(=O)c1ccc(NC(=O)c2cc(-c3ccccc3O)[nH]n2)cc1
2. COc1ccc(C(=O)N/C(=C/c2cccnc2)C(=O)N2CCN(C)CC2)cc1OC
3. CN(Cc1c(C(=O)N/N=C/c2cccc(F)c2)nnn1-c1nonc1N)c1ccccc1

result:
[17.9, 13.3, 1.37]
